Assay: Tmax in dog at 0.14 mg/kg, sublingual
Format: ADME, organism-based, Canis lupus familiaris
Parameters: dose 0.14 mg/kg
Settings: in vivo

record-smiles | measurement-units | Tmax
C[C@@H]1CN(C(=O)[C@@H]2CN(C(C)(C)C)C[C@H]2c2ccc(F)cc2F)C[C@H](C)[C@@]1(O)c1ccccc1.Cl | min | 42

* * *

Target: Melanocortin receptor 4 (Homo sapiens)
Sequence (P32245 whole entry): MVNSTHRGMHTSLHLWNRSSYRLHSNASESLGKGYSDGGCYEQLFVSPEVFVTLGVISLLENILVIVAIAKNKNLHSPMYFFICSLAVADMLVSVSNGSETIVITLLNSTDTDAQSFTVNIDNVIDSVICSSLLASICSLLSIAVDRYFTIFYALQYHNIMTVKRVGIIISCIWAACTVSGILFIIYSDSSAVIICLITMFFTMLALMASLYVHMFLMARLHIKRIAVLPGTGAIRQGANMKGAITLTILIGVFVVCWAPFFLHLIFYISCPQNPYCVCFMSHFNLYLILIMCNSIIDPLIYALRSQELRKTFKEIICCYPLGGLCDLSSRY
Assay: Agonist activity at human recombinant MC4 receptor expressed in CHO cells by cAMP responsive beta lactamase reporter gene assay
Mark T for EC50 under 60 nM, F if at or over.

record-smiles | tgt | group
C[C@@H]1CN(C(=O)[C@@H]2CN(C(C)(C)C)C[C@H]2c2ccc(F)cc2F)C[C@H](C)[C@@]1(O)c1ccc(F)cc1F | Melanocortin receptor 4 (Homo sapiens) | F
C[C@@H]1CN(C(=O)[C@@H]2CN(C(C)(C)C)C[C@H]2c2ccc(F)cc2F)C[C@H](C)[C@@]1(O)c1cccnc1 | Melanocortin receptor 4 (Homo sapiens) | F
C[C@@H]1CN(C(=O)[C@@H]2CNC[C@H]2c2ccc(F)cc2F)C[C@H](C)[C@@]1(O)c1ccc(F)cc1 | Melanocortin receptor 4 (Homo sapiens) | F
CC(C)N1C[C@@H](C(=O)N2C[C@@H](C)[C@](O)(c3cccc(F)c3)[C@@H](C)C2)[C@H](c2ccc(F)cc2F)C1 | Melanocortin receptor 4 (Homo sapiens) | T
CC(C)N1C[C@@H](C(=O)N2C[C@@H](C)[C@](O)(c3ccccc3)[C@@H](C)C2)[C@H](c2ccc(F)cc2F)C1 | Melanocortin receptor 4 (Homo sapiens) | F
C[C@@H]1CN(C(=O)[C@@H]2CN(C(C)(C)C)C[C@H]2c2ccc(F)cc2F)C[C@H](C)[C@@]1(O)c1c(F)cccc1F | Melanocortin receptor 4 (Homo sapiens) | T
